biological target: LFA-1 high affinity open mutant K287C/K294C (αL K287C/K294C with β2) (human) (UniProt P05107); assay: K562 cell adhesion to immobilized ICAM-1
OUTCOME_MEASURE: % inhibition (%)

Consider the reported % inhibition for these substances:
> print(dat)
                        substance  assay.value
1  monoclonal antibody CBRLFA-1/9          3.6
2  monoclonal antibody CLBLFA-1/1         6.69

a. anti-β2 (CD18) monoclonal antibody CBRLFA-1/7
b. monoclonal antibody CBRLFA-1/1
Req: Recorded % inhibition values differ for a and b ; which one is higher? # answer = label of selected item
Resp: a
(a: 5.77%, b: 2.85%)

---

target: wild-type LFA-1 (αL/β2 complex) (human) (UniProt P05107); test: K562 (+CBRLFA-1/2) cell adhesion to immobilized ICAM-1
OUTCOME_MEASURE: % inhibition (%)

> print(dat)
                        substance  assay.value
1  monoclonal antibody CBRLFA-1/1         94.7

I. monoclonal antibody CBRLFA-1/9
II. anti-β2 (CD18) monoclonal antibody CBRLFA-1/7
Req: Recorded % inhibition values differ for I and II ; which one is higher? # answer = label of selected item
Resp: I
(I: 97.8%, II: 5.04%)
